src = PubChem BioAssay (NCI)

# Tested on: SNB-75 CNS
# METHOD: NCI tumour cell line growth inhibition, 48 h; in the data active = GI50 below about 0.43 µM; inactive = the rest
Just give me one of these, please: t for active, f for inactive

Previously resolved entries follow.
O=C1C=C(N2CC2)C(=O)C=C1N1CC1    t
C=C1SC(=Nc2ccccc2Cl)N(C(=O)c2sc3ccccc3c2Cl)C1(C)C    f
CCC(c1ccc(OC)cc1)C(CC)c1ccc(O)c(CN2CCCC2)c1 (stereo not given)    f
CCn1cc(C(=O)N/N=C/c2cccc(F)c2)c(=O)c2cc(F)c(N3CCNC(C)C3)c(F)c21 (stereo not given)    f

Recorded call for CC1OC(O[C@H]2/C=C/C=C/C=C/C=C/C=C/C=C/C=C/[C@H](C)[C@@H](O)[C@@H](C)[C@H](C)OC(=O)C[C@H](O)C[C@H](O)CC[C@@H](O)[C@H](O)C[C@H](O)C[C@]3(O)C[C@H](O)[C@@H](C(=O)O)[C@H](C2)O3)C(O)C(N)C1O (stereo not given in full) ?
f
